tested on: IGROV-1; test: NCI tumour cell line growth inhibition, 48 h
Activity calls are given as the source filed them. No stated cut-off is given here; in the data, active = GI50 up to about 1.1 µM and inactive = higher.
Kindly state GI50 for each of the entries shown.

                           molecule      observed_result
0    CCC(=O)Nc1ncnc2ncn(C(=O)CC)c12  > 100 µM (inactive)
1  Cc1cccc2cc3c(ccc4ccccc43)c[n+]12   47.1 µM (inactive)
2         Cn1cnc(N2CCCC2)c(C#N)c1=O  > 100 µM (inactive)

For every item below, please supply its GI50.
1. CC1=NN(c2cc(Cl)c(S(=O)(=O)O)cc2Cl)C2(C1)C(Cl)C(=O)N2c1nc2ccccc2s1 (stereo unspecified)
2. Cc1nc(C)c(N2CCN(CN)CC2)c(O)n1
3. CC1(C)CCCCCCCCCC2CC2CCC(C)(C)C1=O (stereo unspecified)

["35 µM (inactive)", "> 100 µM (inactive)", "41.3 µM (inactive)"]

* * *

Kindly state GI50 for each of the entries shown.
system: A498; test: NCI tumour cell line growth inhibition, 48 h
The source made the active and inactive calls. No stated cut-off is given here; in the data, active = GI50 up to about 1.1 µM and inactive = higher.

Examples with their reported GI50 follow.
>>> print(df.to_string())
                                   compound  measured_attribute      observed_result
0  Cc1cn(C2CC(OC(c3ccccc3)(c3ccccc3)c3ccccc3)C(COC(c3ccccc3)(c3ccccc3)c3ccccc3)O2)c(=O)[nH]c1=O (stereo unspecified)                GI50   25.4 µM (inactive)
1   COc1cc(CC(=O)c2ccc3c(c2)OCO3)cc(OC)c1OC                GI50  > 100 µM (inactive)
2  Cc1cccc2c(N)c3cccc(C(=O)NCC[N+](C)(C)Cc4sc(N5CCOCC5)nc4[N+](=O)[O-])c3nc12                GI50   11.4 µM (inactive)
3              CSc1nc(=S)[nH]c2[nH]nc(C)c12                GI50   73.3 µM (inactive)
4  O=C1c2ccccc2NC2C(O)c3ccccc3N12 (stereo unspecified)                GI50   20.6 µM (inactive)
5  CSc1ccc(NC(=O)C2CCCCC2C(=O)O)cc1 (stereo unspecified)                GI50  > 100 µM (inactive)
6  COC(=N)/C(=C1\OC(=N)C(c2ccc(Cl)cc2)=C1O)c1ccc(Cl)cc1                GI50  > 100 µM (inactive)
7               CCNC(=O)N(CC)CN(CC)C(=O)NCC                GI50  > 100 µM (inactive)

For every item below, please supply its GI50.
1. CCCCCCCCCCCCCS(=O)(=O)NCC(N)=O
2. COC(=O)[C@H]1COC(=O)N1
3. OCC(CO)CC1COc2ccccc2O1 (stereo unspecified)

1: > 100 µM (inactive); 2: > 100 µM (inactive); 3: > 10 µM (inactive)

* * *

test system: RPMI-8226; assay: NCI tumour cell line growth inhibition, 48 h
Activity calls are given as the source filed them. Cut-off read from the data, not from the text of the source: active = GI50 up to about 1.1 µM and inactive = higher.
The reply should name one outcome from TRUE = active, FALSE = inactive

Please review the entries below; each comes with its answer.
>>> print(df.to_string())
                                   compound  group_label
0                   O=C(NCCOCCO)c1ccc(O)cc1        FALSE
1  CCC(C)c1cccc(C)c1NC(=O)C(=O)Cc1nc2ccccc2s1 (stereo not given)        FALSE
2   COc1cc(CC(=O)c2ccc3c(c2)OCO3)cc(OC)c1OC        FALSE

Write down the call the test reported for this compound. Item: C=C1C(=O)O[C@@H]2C=C(C)C3=CC(=O)[C@](C)(C[C@H](OC(=O)/C(C)=C\C)[C@@H]12)O3 TRUE

Write down the call the test reported for this compound. Item: CCN(CC)c1ccc(/C=C2\CCc3ccc([N+](=O)[O-])cc3C2=O)cc1 TRUE

* * *

tested on: RXF 631; test: NCI tumour cell line growth inhibition, 48 h
Calls of active or inactive are those of the source. Rule as the data show it: active = GI50 up to about 1.1 µM and inactive = higher.
Measured attribute: GI50

Examples with their reported GI50 follow.
                                   compound  measured_attribute      observed_result
0  Cc1ccc(NC(=O)C(=O)C2C(=O)N(c3ccccc3)N=C2N)cc1C (stereo not given)                GI50  > 100 µM (inactive)
1  COC(=O)[C@@H]1C(=O)O[C@@H](c2ccc3c(c2)OCO3)[C@@H]1C(=O)OC.COC(=O)[C@H]1C(=O)O[C@@H](c2ccc3c(c2)OCO3)[C@@H]1C(=O)OC                GI50  > 100 µM (inactive)
2               CCNC(=O)N(CC)CN(CC)C(=O)NCC                GI50  > 100 µM (inactive)

For every item below, please supply its GI50.
1. C/C=C1/C=CC2c3[nH]c4ccccc4c3CCN2C1 (stereo not given)
2. O=C1CC(C2(O)C(=O)Nc3ccc([N+](=O)[O-])cc32)c2ccccc21 (stereo not given)
3. Cn1cnc([N+](=O)[O-])c1Sc1ccccn1
4. O=C(c1ccccc1)c1c(C(=O)c2ccccc2)c(-c2ccccc2)c2c(-c3ccccc3)sc(-c3ccccc3)c2c1-c1ccccc1

["> 400 µM (inactive)", "16.4 µM (inactive)", "> 100 µM (inactive)", "> 100 µM (inactive)"]

For every item below, please supply its GI50.
1. C=C(C)C1CC=C(C)CC1 (stereo not given)
2. COc1ccc(C2CCc3cc4c(cc3/C2=N/OC(C)=O)OCO4)cc1OC (stereo not given)
3. Cc1ccccc1NC(=O)CC(=O)NNCC(=O)Nc1nnc(-c2ccccc2)s1

["908 µM (inactive)", "25.5 µM (inactive)", "> 100 µM (inactive)"]

* * *

system: UO-31; experiment: NCI tumour cell line growth inhibition, 48 h
The source made the active and inactive calls. Cut-off read from the data, not from the text of the source: active = GI50 up to about 1.1 µM and inactive = higher.
The reply should name one outcome from active, inactive

Compound	Group label
CCC1C(=O)OCc2c1cc1n(c2=O)Cc2cc3ccccc3nc2-1 (centres undefined)	inactive
CCCc1nc(Cl)c(Cl)c(Cl)n1	inactive
Cc1[nH]c(=O)nc(N/N=C/c2ccc(Cl)cc2)c1C(=O)Nc1ccc(Cl)cc1	inactive
Cc1ccccc1C1=C(C(=O)Nc2ccc(Cl)c(Cl)c2)NC(=S)NC1N (centres undefined)	inactive
CSc1nc(Cl)c(Br)c(Nc2cnc(O)nc2O)n1	inactive
S=C(Nc1cccc(Cl)c1)Nc1ccccn1	inactive

Write down the call the test reported for this compound. Item: C=CCN1CCC(O)(c2cc(C(=O)OCC)[nH]c2-c2cc(C)no2)C1 (centres undefined) inactive

Write down the call the test reported for this compound. Item: COc1ccc(NC(=O)CC/C(CC(=O)c2ccco2)=N/Nc2ccc([N+](=O)[O-])cc2[N+](=O)[O-])cc1 inactive

Write down the call the test reported for this compound. Item: Cc1c(N)nc(C(CC(N)=O)NCC(N)C(N)=O)nc1C(=O)NC(C(=O)NC(C)C(O)C(C)C(=O)NC(C(=O)NCCc1nc(-c2nc(C(=O)NCCCNC(C)c3ccccc3)cs2)cs1)C(C)O)C(OC1OC(CO)C(O)C(O)C1OC1OC(CO)C(O)C(OC(N)=O)C1O)c1c[nH]cn1 (centres undefined) active

* * *

test system: MCF7; test: NCI tumour cell line growth inhibition, 48 h
The source made the active and inactive calls. Cut-off read from the data, not from the text of the source: active = GI50 up to about 1.1 µM and inactive = higher.
The reply should name one outcome from 1 = active, -1 = inactive

Please review the entries below; each comes with its answer.
Compound	Target desc	Group label
O=C1CC(=O)N(C2CCCCC2)C(=O)N1c1ccccc1S(=O)(=O)Oc1ccccc1	MCF7	-1
CCCCCCCCP(=O)(O)OP(=O)(O)OCC1OC(n2ccc(N)nc2=O)C(O)C1O (centres undefined)	MCF7	-1
CCOC(=O)N1CCN(C(=O)Nc2cccc3ccccc23)CC1	MCF7	-1

Write down the call the test reported for this compound. Item: CC(=O)OC1CCn2c1nc1cc([N+](=O)[O-])c(C)cc12 (centres undefined) -1

Write down the call the test reported for this compound. Item: CC(Cl)CN1c2ccccc2Sc2ccc(Cl)cc21 (centres undefined) -1

* * *

test system: A549; assay: NCI tumour cell line growth inhibition, 48 h
The source made the active and inactive calls. Rule as the data show it: active = GI50 up to about 1.1 µM and inactive = higher.
Measured attribute: GI50

In [3]: df
Out[3]:
                                   molecule  measured_attribute      observed_result
0                  CCOC(=O)C1(C(=O)OCC)CSC1                GI50  > 100 µM (inactive)
1  CC(C)=Cc1cc2c(cc1O)CCC1C2CC[C@@]2(C)C1CC[C@@H]2O (stereo partly specified)                GI50   12.5 µM (inactive)
2  COc1ccc(OC)c(NC(=O)C2=C(C)NC(C)=C(C(=O)Nc3cc(OC)ccc3OC)C2c2ccccc2)c1                GI50   85.1 µM (inactive)

For every item below, please supply its GI50.
1. COc1cc(/C=C/C(=O)O)ccc1C(=O)O/C=C/c1ccccc1
2. BrC(Br)([P+](c1ccccc1)(c1ccccc1)c1ccccc1)[P+](c1ccccc1)(c1ccccc1)c1ccccc1
3. Cc1ccccc1C1=[N+]([O-])c2ccccc2C1=O
4. COc1cc(C2C3=C(COC3=O)OC(C)(C)Oc3cc4c(cc32)OCO4)cc(OC)c1O (stereo unspecified)
5. CCN(CC)c1ccc(/C=C2\CCc3ccc([N+](=O)[O-])cc3C2=O)cc1

1. > 100 µM (inactive)
2. 26.3 µM (inactive)
3. > 10 µM (inactive)
4. 0.944 µM (active)
5. 4.58 µM (inactive)

For every item below, please supply its GI50.
1. COP(=O)(OC)[C@@](O)(c1ccccc1)[C@@H](O)[C@@H](O)c1ccccc1
2. CCN(CC)CCC1(C2CCCCC2)CCC(=O)NC1=O (stereo unspecified)
3. CCOC(=O)Cn1c(=O)c2nc(SC)sc2n(-c2ccc(C)cc2)c1=S
4. O=S1(=O)C[C@H](O)[C@H](O)CS1

["> 100 µM (inactive)", "> 100 µM (inactive)", "> 60.4 µM (inactive)", "> 100 µM (inactive)"]

For every item below, please supply its GI50.
1. CN(C)c1ccc(/C=c2\sc3nc4ccccc4n3c2=O)cc1
2. CCSC1(SCC)CC(Cc2ccc(OC)cc2)N(/C=N/C(C)(C)C)C1 (stereo unspecified)
3. O=C1C=C2CCC[C@H]3OC(=O)C[C@@]23CC1
4. COC(=O)c1c(C#C[Si](C)(C)C)c(C#C[Si](C)(C)C)c(C#C[Si](C)(C)C)c(C#C[Si](C)(C)C)c1C(=O)OC

["> 100 µM (inactive)", "36.9 µM (inactive)", "> 100 µM (inactive)", "> 100 µM (inactive)"]
